Taken from ChEMBL document CHEMBL1143449.

Reported IC50 values for the following molecules.
# ASSAY_EXPLANATION: Inhibitory concentration against Histone deacetylase 1B in maize
# Type: functional, Zea mays

| MOLECULE | IC50, nM |
| --- | --- |
| O=C(CC1CSc2nc(Cc3ccccc3)cc(=O)n21)NO (centres undefined) | 30200 |
| O=C(CCSc1nc(O)cc(Cc2ccccc2)n1)NO | 41 |
| O=C(CCCSc1nc(O)cc(Cc2ccccc2)n1)NO | 251 |
| O=C(CCCCCSc1nccc(O)n1)NO | 239 |
| O=C(O)[C@@H]1C[C@]2(C(=O)O)C=C[C@@H](O)[C@@H](C2)O1 | 0.4 |
| O=C(/C=C/Sc1nc(O)cc(Cc2ccccc2)n1)NO | 7400 |
| O=C(CCCCCCC(=O)Nc1ccccc1)NO | 28 |
| O=C(CCCCSc1nc(O)cc(Cc2ccccc2)n1)NO | 130 |
| O=C(CCCCCSc1nc(-c2ccccc2)cc(=O)[nH]1)NO | 19 |
| O=C(CCCCCCCSc1nc(O)cc(Cc2ccccc2)n1)NO | 193 |
| CCc1ccccc1-c1cc(O)nc(SCCCCCC(=O)NO)n1 | 48 |
| CCCc1cc(O)nc(SCCCCCC(=O)NO)n1 | 116 |
| O=C(CCCCCCSc1nc(O)cc(Cc2ccccc2)n1)NO | 76 |
| Cc1cc(O)nc(SCCCCCC(=O)NO)n1 | 112 |
